- Test system: Vero E6 infected with SARS-CoV-2
- Measurement notes: SARS-CoV-2 infection rate relative to infected DMSO; higher = more infection, active = 60 or less
- Applied conditions: 24 h
One label from this list, please: active, inactive

The examples below pair each entry with its known result.
1. c1ccc2nc(N3CCNCC3)ccc2c1 [quipazine] (10 µM)	inactive
2. Oc1cc(O)c2cc(O)c(-c3cc(O)c(O)c(O)c3)[o+]c2c1 [delphinidin] (10 µM)	inactive
3. CCCC(=O)O[C@]1(C(=O)COC(C)=O)CC[C@H]2[C@@H]3C[C@H](F)C4=CC(=O)C=C[C@]4(C)[C@@]3(F)[C@@H](O)C[C@@]21C [difluprednate] (10 µM)	inactive
4. OC[C@H]1O[C@@H](n2cnc3c(NC4CCCC4)nc(Cl)nc32)[C@H](O)[C@@H]1O [2-chloro-N6-cyclopentyladenosine] (10 µM)	inactive
5. CCCCCCCCCCC[C@@H](C[C@@H]1OC(=O)[C@H]1CCCCCC)OC(=O)[C@H](CC(C)C)NC=O [orlistat] (10 µM)	inactive
6. OC[C@H]1O[C@@H](OCCc2ccc(O)cc2)[C@H](O)[C@@H](O)[C@@H]1O [salidroside] (10 µM)	inactive
7. O[C@@](Cc1nc(CC2(C(F)(F)F)CC2)c[nH]1)(c1ccc(-n2cccn2)cc1)C(F)(F)F (10 µM)	inactive
8. COc1c(C)c2c(c(O)c1C/C=C(\C)CCC(=O)OCCN1CCOCC1)C(=O)OC2 [mycophenolate-mofetil] (10 µM)	inactive

Problem: // return assay outcome for CCC(=O)O[C@@H]1CC(=O)O[C@H](C)C/C=C/C=C/[C@H](OC(C)=O)[C@H](C)C[C@H](CC=O)[C@H](O[C@@H]2O[C@H](C)[C@@H](O[C@H]3C[C@@](C)(OC(C)=O)[C@@H](OC(=O)CC)[C@H](C)O3)[C@H](N(C)C)[C@H]2O)[C@H]1OC [miocamycin] (10 µM)
Solution: inactive

Problem: Short answer needed: outcome of this test for CCCC[C@@H](C=O)NC(=O)[C@H](CC(C)C)NC(=O)OCc1ccccc1 [calpeptin] (10 µM) ?
Solution: active

Problem: What was the test verdict on COc1cc2c(cc1O)CC[C@@H]1[C@@H]2CC[C@]2(C)[C@@H](O)CC[C@@H]12 [2-methoxyestradiol] (0.833333 µM) ?
Solution: inactive

Problem: Recorded test outcome, item CCc1cc(O)c(Oc2ccc(C(N)=O)cc2F)cc1F (10 µM)
Solution: inactive

Problem: Per the assay record, what outcome was assigned to CCN(CC)Cc1ccc2cc(COC(=O)Nc3ccc(C(=O)NO)cc3)ccc2c1 [givinostat] (10 µM) ?
Solution: inactive

Problem: Per the records of this test, what outcome belongs to Cc1cnc(-c2cc(N3CCN(C(=O)CCS(C)(=O)=O)CC3)ncc2Cl)c(C)c1 (10 µM) ?
Solution: inactive

---

- Tested on: Vero E6 infected with SARS-CoV-2
- Measurement notes: inhibition of SARS-CoV-2 cytopathic effect; higher = more antiviral protection, active = above 15
- Applied conditions: 833.33 nM; 48 h
Consider the following molecules and their measured inhibition of SARS-CoV-2 cytopathic effect readings.
Report the figure in % without appending any unit label.

Consider the worked cases shown below.
1. CC(C)C(=O)OC[C@@]1(N=[N+]=[N-])O[C@@H](n2ccc(N)nc2=O)[C@H](OC(=O)C(C)C)[C@@H]1OC(=O)C(C)C [balapiravir]	-0.11
2. Nc1nc2ccc(Cl)cc2c2nc(-c3ccco3)nn12	-3.37
3. O=c1[nH]c(=O)n([C@H]2C[C@H](O)[C@@H](CO)O2)cc1/C=C/Br [brivudine]	-0.42
4. COc1ccc(-c2ccc3c(N4CCOC[C@@H]4C)nc(N4CCOC[C@@H]4C)nc3n2)cc1CO	-4.35
5. CCN(CC)C(=O)/C(C#N)=C/c1cc(O)c(O)c([N+](=O)[O-])c1 [entacapone]	-2.41
6. CCCCc1nc(C)c(CC(=S)N(C)C)c(=O)n1Cc1ccc(-c2ccccc2-c2nnn[nH]2)cc1 [fimasartan]	1.46
7. CCOc1cc([C@@H](CS(C)(=O)=O)N2C(=O)c3cccc(NC(C)=O)c3C2=O)ccc1OC [apremilast]	-0.47
8. COc1nccc(-c2c(-c3ccc(F)cc3)ncn2C2CCNCC2)n1	-2.73
9. Oc1ccc(CC2NCCc3cc(O)c(O)cc32)cc1 (centres undefined) [higenamine]	-0.52
10. COc1ccc(OC)c([C@@H](O)CNC(=O)CN)c1 [midodrine]	0.19

Problem: Fill in inhibition of SARS-CoV-2 cytopathic effect for Cc1nc(C#Cc2ccnc(Cl)c2)c(C)n1-c1ccc(F)cc1 [basimglurant] tested with Vero E6 infected with SARS-CoV-2.
Solution: -1.39

Problem: Find the measured inhibition of SARS-CoV-2 cytopathic effect of CCOC(=O)c1ccc(N2NC(=O)/C(=C/c3ccc([N+](=O)[O-])o3)C2=O)cc1 with Vero E6 infected with SARS-CoV-2 as test system.
Solution: -2.48

---

- Tested on: Vero E6 infected with SARS-CoV-2
- Measurement notes: SARS-CoV-2 infection rate relative to infected DMSO; higher = more infection, active = 60 or less
- Applied conditions: 24 h
Readout kind: SARS-CoV-2 infection rate

1. CC(C)C(=O)Nc1ncc(-c2cc(C(F)F)nn2-c2c(Cl)cccc2Cl)s1 (10 µM)	108% (inactive)
2. N.N.[Cl][Pt][Cl] [cisplatin] (10 µM)	111% (inactive)
3. CCOCCOc1ccccc1C(N)=O [etosalamide] (10 µM)	104% (inactive)
4. C[C@@H](c1ccc2nccn2c1)n1nnc2ncc(-c3cnn(C)c3)nc21 [savolitinib] (10 µM)	104% (inactive)

Problem: Using Vero E6 infected with SARS-CoV-2 as the test system, report measured SARS-CoV-2 infection rate of CC(C)N(CCNC(=O)CN1CCCC1=O)C(C)C [pramiracetam] (10 µM) .
Solution: 115% (inactive)

Problem: Give SARS-CoV-2 infection rate; test system Vero E6 infected with SARS-CoV-2; compound CCCCn1c(-c2ccccc2)nc(-c2ccccc2)c1CN(Cc1ccc2c(c1)OCO2)Cc1ccc2c(c1)OCO2 (10 µM)
Solution: 99.5% (inactive)

Problem: Lab note: record SARS-CoV-2 infection rate of COc1cc2c(Oc3ccc(NC(=O)C4(C(=O)Nc5ccc(F)cc5)CC4)cc3F)ccnc2cc1OCCCN1CCOCC1 [foretinib] (10 µM) tested on Vero E6 infected with SARS-CoV-2.
Solution: 106% (inactive)

Problem: Under Vero E6 infected with SARS-CoV-2: report SARS-CoV-2 infection rate of CCCCCCCCCCCCOS(=O)(=O)O [dodecyl-sulfate] (10 µM) .
Solution: 103% (inactive)

Problem: Give the observed SARS-CoV-2 infection rate of CC(=O)Oc1ccc(C(c2ccc(OC(C)=O)cc2)c2ccccn2)cc1 [bisacodyl] (10 µM) for Vero E6 infected with SARS-CoV-2.
Solution: 85.5% (inactive)

---

- Tested on: Vero E6 infected with SARS-CoV-2
- Measurement notes: morphology score (similarity to uninfected cells); higher = more like uninfected cells
- Applied conditions: 24 h
Assign met whenever morphology score does not fall below -0.02; assign not met whenever it does.

# count of solved cases: 5
1. CC(C)(C)c1ccc(S(=O)(=O)NCc2ccc(C(=O)Nc3cccnc3)cc2)cc1 (0.833333 µM)	met
2. CCN1C(=O)NC(c2ccccc2)C1=O (centres undefined) [ethotoin] (10 µM)	met
3. NCCCCCC(O)(P(=O)(O)O)P(=O)(O)O [neridronic-acid] (10 µM)	met
4. CCCC(C)NC(=O)c1ccc(Cl)c(Cl)c1 (centres undefined) (10 µM)	not met
5. CC1(C)S[C@@H]2[C@H](NC(=O)[C@H](NC(=O)N3CCNC3=O)c3ccccc3)C(=O)N2[C@H]1C(=O)O [azlocillin] (10 µM)	not met

Problem: Hello, I need to know if CCOc1ccc(Cc2nccc3cc(OCC)c(OCC)cc23)cc1OCC [ethaverine] (10 µM) has measured morphology score not below -0.02. Thanks!
Solution: met

Problem: For this compound, is measured morphology score -0.02 or higher? CCCOc1ccc2[nH]c(NC(=O)OC)nc2c1 [oxibendazole] (10 µM)
Solution: not met

Problem: Reported morphology score at or above -0.02? Nc1nc(=O)[nH]cc1F [flucytosine] (10 µM)
Solution: met

Problem: Could you please find out whether CC[C@@H](C)c1ccc(NC(=O)Cn2cnc3c2c(=O)n(C)c(=O)n3C)cc1 (racemic) (10 µM) has morphology score that meets -0.02 or exceeds it?
Solution: met

---

- Tested on: Vero E6 infected with SARS-CoV-2
- Measurement notes: inhibition of SARS-CoV-2 cytopathic effect; higher = more antiviral protection, active = above 15
- Applied conditions: 8.33 nM; 48 h
Readout kind: inhibition of SARS-CoV-2 cytopathic effect (%)
Please respond with the number in % and leave the unit unwritten.

1. CC(C)NCC(O)c1ccccc1Cl (centres undefined) [clorprenaline]	1
2. CCCCn1c(=O)c2[nH]c(C34CC5CC(CC3C5)C4)nc2n(CCCO)c1=O	2.64
3. CN[C@@H](C)C(=O)N[C@H](C(=O)N1CCC[C@H]1C(=O)N[C@H]1c2ccccc2C[C@H]1OCC#CC#CCO[C@@H]1Cc2ccccc2[C@@H]1NC(=O)[C@@H]1CCCN1C(=O)[C@@H](NC(=O)[C@H](C)NC)C1CCCCC1)C1CCCCC1	4.06
4. C[C@]12CC[C@@H]3c4ccc(O)cc4CC[C@H]3[C@@H]1CCC2=O [estrone]	1.93

Problem: Read the entry CCN(CC)Cc1nccn1-c1ccc([N+](=O)[O-])cc1C(=O)c1ccccc1Cl [nizofenone] and write its reported inhibition of SARS-CoV-2 cytopathic effect.
Solution: 0.76

Problem: Please give the documented inhibition of SARS-CoV-2 cytopathic effect of CCCCCCOc1nsnc1C1=CCCN(C)C1 [xanomeline]
Solution: -0.07

Problem: Recall and state the measured inhibition of SARS-CoV-2 cytopathic effect for CCOP(=S)(OCC)Oc1nc(Cl)c(Cl)cc1Cl [chlorpyrifos] .
Solution: 2.45

Problem: Give the measured inhibition of SARS-CoV-2 cytopathic effect for NCC1(CC(=O)O)CCCCC1 [gabapentin]
Solution: 2.99

Problem: Dear colleague, please send me the reported inhibition of SARS-CoV-2 cytopathic effect for CCCCCCCCCCCCCCCC[N+](C)(C)C [cetrimonium] when you can.
Solution: -0.39
